MEASURED ON: mu opiate receptor (MOR) (Rattus norvegicus)
Construct: from tissue; host or cells: striatum (membrane preparation)
Format: biochemical
READOUT NAME: % DAMGO + BFNA (%)
Output spec: scalar in %, unitless text.

>>> print(df.to_string())
                                   compound  reading_unit  numeric_result
0  COc1cccc(CCC(=O)CC2c3c(cc4c(c3OC)OCO4)CC[N+]2(C)C)c1 (stereo not drawn)             %            80.2
1  O=S(=O)(c1ccc(F)c(F)c1)N1CCC2(CC1)OCCN2S(=O)(=O)c1ccc(F)c(F)c1             %           194.5
2  O=S(=O)(c1ccc(OC(F)(F)F)cc1)N1CCC2(CC1)OCCN2S(=O)(=O)c1ccc(OC(F)(F)F)cc1             %             7.2
3  O=S(=O)(c1ccc(C(F)(F)F)cc1)N1CCC2(CC1)OCCN2S(=O)(=O)c1ccc(C(F)(F)F)cc1             %           280.7

Consider the compound shown here: Cc1cccc(OCC(O)CN2CC(C)OC(C)C2)c1 (stereo not drawn) What is its recorded % DAMGO + BFNA?
628.1

Please do the same for CCOc1ccc(C(=O)CC2c3c(cc4c(c3OC)OCO4)CC[N+]2(C)C)cc1F (stereo not drawn) as well.
47.8

----------
MEASURED ON: mu opiate receptor (MOR) (Rattus norvegicus, UniProt P33535)
Construct: from tissue; host or cells: striatum (membrane preparation)
Sequence (P33535 whole entry): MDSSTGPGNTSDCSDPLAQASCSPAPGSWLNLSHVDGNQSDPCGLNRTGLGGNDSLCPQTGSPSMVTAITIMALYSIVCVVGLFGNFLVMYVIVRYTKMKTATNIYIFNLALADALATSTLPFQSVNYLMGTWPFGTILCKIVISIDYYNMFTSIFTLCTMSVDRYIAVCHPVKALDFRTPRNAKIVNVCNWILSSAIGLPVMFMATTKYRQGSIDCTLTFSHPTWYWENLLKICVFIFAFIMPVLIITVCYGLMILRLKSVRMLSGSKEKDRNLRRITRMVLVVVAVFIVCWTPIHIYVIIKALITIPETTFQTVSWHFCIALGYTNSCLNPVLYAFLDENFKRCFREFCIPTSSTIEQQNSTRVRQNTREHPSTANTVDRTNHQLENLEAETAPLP
Type: biochemical
RUN PARAMETERS: [35S]GTPγS binding to Gαo in striatal membranes; compound 1 μM
Procedure: To assess the mu opiate receptor (MOR) agonist activity of positive compounds from the FLNA screening, compounds were tested in a [^35S]GTPγS binding assay using striatal membranes. […] The immunocomplexes so formed were collected by incubation at 25° C. for 30 minutes with 40 μl of agarose-conjugated protein A/G beads and centrifugation at 5,000×g at 4° C. for 5 minutes. […] The radioactivity in the suspension was determined by liquid scintillation spectrometry.
READOUT NAME: Concentration of FLNA-Binding Compound as Agonist 1 μM
Answer shape: numeric part, then the unit.

Below, 7 molecules whose answers are already recorded.
                                   molecule  result
0  COc1c2c(cc3c1C(CC(=O)Cc1ccccc1C)N(C)CC3)OCO2 (centres unmarked)  299.8%
1  COc1ccc(C(=O)N2CCC3(CC2)OCCN3S(=O)(=O)c2ccc(OC)cc2)cc1  247.7%
2  CC1CCN(CC(O)COC2CC(C)CCC2C(C)C)CC1 (centres unmarked)  190.9%
3  COc1cc(OC)cc(C(=O)CC2c3c(cc4c(c3OC)OCO4)CC[N+]2(C)C)c1 (centres unmarked)  248.7%
4  O=C(c1ccc([N+](=O)[O-])cc1)N1CCC2(CC1)OCCN2S(=O)(=O)c1ccc([N+](=O)[O-])cc1 [Compound C0033]  186.4%
5  O=S(=O)(c1ccc(OC(F)(F)F)cc1)N1CCC2(CC1)OCCN2S(=O)(=O)c1ccc(OC(F)(F)F)cc1  204.0%
6  CC1CN(CC(O)COc2ccccc2)CC(C)O1 (centres unmarked)  138.7%

With those in mind, consider the next molecule.
Quick one: Concentration of FLNA-Binding Compound as Agonist 1 μM of N#Cc1ccccc1S(=O)(=O)N1CCC2(CC1)OCCN2S(=O)(=O)c1ccccc1C#N ?
228.4%
